- target_system: GSK3β (H350L) (Homo sapiens (Human))
- Sequence (P49841 whole entry, stated change not applied): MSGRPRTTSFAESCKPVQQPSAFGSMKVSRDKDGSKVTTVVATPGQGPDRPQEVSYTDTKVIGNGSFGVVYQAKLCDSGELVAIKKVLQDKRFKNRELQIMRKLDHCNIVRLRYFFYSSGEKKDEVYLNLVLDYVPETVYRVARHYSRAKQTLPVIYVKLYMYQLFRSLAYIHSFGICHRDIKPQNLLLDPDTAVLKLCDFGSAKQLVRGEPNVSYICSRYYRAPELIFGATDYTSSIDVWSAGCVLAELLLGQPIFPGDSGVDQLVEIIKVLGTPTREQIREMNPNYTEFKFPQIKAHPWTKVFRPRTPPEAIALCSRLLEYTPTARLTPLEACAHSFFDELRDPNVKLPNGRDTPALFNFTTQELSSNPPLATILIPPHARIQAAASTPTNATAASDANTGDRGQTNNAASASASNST
- run_parameters: read-out: GSK3β Ki
Field 'label' (enum: Fulfilled / Not fulfilled). Set to Fulfilled when Ki is strictly under 10 nM; else Not fulfilled.

Query: Is it true that Ki reported for COc1cc(CC(=O)Nc2cc([C@@H]3CC[C@H](OC(=O)N[C@H]4CC[C@@H](O)CC4)C3)[nH]n2)ccn1 [Example 552] is less than 10 nM?
Reply: Fulfilled

Query: Is it true that Ki reported for CCCNC(=O)O[C@@H]1CC[C@H](c2cc(NC(=O)Cc3cncs3)n[nH]2)C1 [Example 179] is less than 10 nM?
Reply: Not fulfilled

Query: Is it true that Ki reported for Cn1ccc(CC(=O)Nc2cc([C@H]3CC[C@@H](OC(=O)N4CCCC4(C)C)C3)[nH]n2)n1 [Example 136] is less than 10 nM?
Reply: Fulfilled

Query: Is it true that Ki reported for C[C@@H](CC(F)(F)F)NC(=O)O[C@@H]1CC[C@H](c2cc(NC(=O)Cc3cnn(C)c3)n[nH]2)C1 [Example 92] is less than 10 nM?
Reply: Not fulfilled

Query: Is it true that Ki reported for CC1(C)CCCN1C(=O)O[C@@H]1CC[C@H](c2cc(NC(=O)Cc3ccon3)n[nH]2)C1 [Example 135] is less than 10 nM?
Reply: Not fulfilled

Query: Is it true that Ki reported for O=C(Cc1cc(F)cc(F)c1)Nc1cc([C@@H]2CC[C@H](OC(=O)N[C@H]3CC[C@H](O)CC3)C2)[nH]n1 [Example 28] is less than 10 nM?
Reply: Fulfilled

Query: Is it true that Ki reported for CO[C@@H]1CN(C(=O)O[C@@H]2CC[C@H](c3cc(NC(=O)Cc4cc(C)no4)n[nH]3)C2)[C@H]1C [Example 618] is less than 10 nM?
Reply: Fulfilled

Where do these numbers come from? They come from patent US11014911B2.
